System: NCI-H719 tumor spheroids, viability
Assay: Anticancer human tumor NCI-H719 cell line growth inhibition; active = viability on the fitted dose curve at most 10% of control; inactive = the rest;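 note: spheroids exposed to compounds for seven days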
Conditions: second compound 10 µM; first compound 3 µM; spheroids with HUVEC and MSC
Outcomes: t for active, f for inactive

{"Molecule": "CNCc1ccc(-c2cc(-c3nc(-c4ccc(S(=O)(=O)C(C)C)cc4)cnc3N)on2)cc1 + Cn1nnc2c(C(N)=O)ncn2c1=O", "System Under Test": "NCI-H719 tumor spheroids, viability", "Qualitative Label": "f"}
{"Molecule": "Cc1sc2c(c1C)C(c1ccc(Cl)cc1)=NC(CC(=O)Nc1ccc(O)cc1)c1nnc(C)n1-2 (centres undefined) + Cn1nnc2c(C(N)=O)ncn2c1=O", "System Under Test": "NCI-H719 tumor spheroids, viability", "Qualitative Label": "t"}
{"Molecule": "Cn1ncnc1[C@H]1c2n[nH]c(=O)c3cc(F)cc(c23)N[C@@H]1c1ccc(F)cc1 + Cn1nnc2c(C(N)=O)ncn2c1=O", "System Under Test": "NCI-H719 tumor spheroids, viability", "Qualitative Label": "f"}
{"Molecule": "O=C(c1cc(Cc2n[nH]c(=O)c3ccccc23)ccc1F)N1CCN(C(=O)C2CC2)CC1 + Cn1nnc2c(C(N)=O)ncn2c1=O", "System Under Test": "NCI-H719 tumor spheroids, viability", "Qualitative Label": "f"}

====

Test system: NCI-H719 tumor spheroids, viability
Test: Anticancer human tumor NCI-H719 cell line growth inhibition;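 note: spheroids exposed to compounds for seven days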;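 for viability, T/C: percent viability relative to DMSO vehicle control as 100%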
Details: second compound 0.0949 µM; first compound 0.0316 µM; stronger effect = lower value; spheroids with HUVEC and MSC
In this section we review reported viability, T/C values for a set of compounds.
Assay Metric: viability, T/C (%)

{"Compound": "COc1ccc([C@@H](O)c2cc(-c3ncnc4cc(N5CCOCC5)ccc34)c(F)cc2Cl)nn1 + CC[C@@]1(O)C(=O)OCc2c1cc1n(c2=O)Cc2cc3c(CN(C)C)c(O)ccc3nc2-1", "Reported Result": 6.51}
{"Compound": "CC1COCCN1c1cc(-c2ccnn2C)c2ccnc(-c3ccn[nH]3)c2n1 (stereo not drawn) + CC[C@@]1(O)C(=O)OCc2c1cc1n(c2=O)Cc2cc3c(CN(C)C)c(O)ccc3nc2-1", "Reported Result": 5.89}
{"Compound": "Cc1cc(C)c(CNC(=O)c2cc(-c3ccc(CN4CCOCC4)cc3)cc3c2cnn3C2CCCC2)c(=O)[nH]1 + CC[C@@]1(O)C(=O)OCc2c1cc1n(c2=O)Cc2cc3c(CN(C)C)c(O)ccc3nc2-1", "Reported Result": 5.7}

====

Listing of entries alongside the reported viability, T/C.
Test system: NCI-H719 tumor spheroids, viability
Assay: Anticancer human tumor NCI-H719 cell line growth inhibition;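 note: spheroids exposed to compounds for seven days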;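 for viability, T/C: percent viability relative to DMSO vehicle control as 100%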
Conditions: second compound 0.0949 µM; first compound 0.949 µM; stronger effect = lower value; spheroids with HUVEC and MSC

{"Compound": "CNCc1ccc(-c2cc(-c3nc(-c4ccc(S(=O)(=O)C(C)C)cc4)cnc3N)on2)cc1 + CC[C@@]1(O)C(=O)OCc2c1cc1n(c2=O)Cc2cc3c(CN(C)C)c(O)ccc3nc2-1", "viability, T/C": "8.45%"}
{"Compound": "O=C(c1cc(Cc2n[nH]c(=O)c3ccccc23)ccc1F)N1CCN(C(=O)C2CC2)CC1 + CC[C@@]1(O)C(=O)OCc2c1cc1n(c2=O)Cc2cc3c(CN(C)C)c(O)ccc3nc2-1", "viability, T/C": "5.69%"}
{"Compound": "Cn1ncnc1[C@H]1c2n[nH]c(=O)c3cc(F)cc(c23)N[C@@H]1c1ccc(F)cc1 + CC[C@@]1(O)C(=O)OCc2c1cc1n(c2=O)Cc2cc3c(CN(C)C)c(O)ccc3nc2-1", "viability, T/C": "5.66%"}
{"Compound": "Cc1sc2c(c1C)C(c1ccc(Cl)cc1)=NC(CC(=O)Nc1ccc(O)cc1)c1nnc(C)n1-2 (centres undefined) + CC[C@@]1(O)C(=O)OCc2c1cc1n(c2=O)Cc2cc3c(CN(C)C)c(O)ccc3nc2-1", "viability, T/C": "2.28%"}

====

Tested on: NCI-H719 tumor spheroids, viability
Test: Anticancer human tumor NCI-H719 cell line growth inhibition;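 note: spheroids exposed to compounds for seven days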;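 for viability, T/C: percent viability relative to DMSO vehicle control as 100%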
Settings: second compound 0.0949 µM; first compound 0.0316 µM; stronger effect = lower value; spheroids with HUVEC and MSC
Assay Metric: viability, T/C

{"Molecule": "CC(C)n1c(=O)n(C)c2cnc3cc(F)c(-c4ccc(OCCCN5CCCCC5)nc4)cc3c21 + CC[C@@]1(O)C(=O)OCc2c1cc1n(c2=O)Cc2cc3c(CN(C)C)c(O)ccc3nc2-1", "Reported Result": "7.12%"}
{"Molecule": "COc1cc(C)[nH]c(=O)c1CN1CCc2c(Cl)cc(C(OC)C3COC3)c(Cl)c2C1=O (stereo not drawn) + CC[C@@]1(O)C(=O)OCc2c1cc1n(c2=O)Cc2cc3c(CN(C)C)c(O)ccc3nc2-1", "Reported Result": "8.78%"}
{"Molecule": "[2H]c1nc(C)nc([2H])c1-c1cc(NC[C@@H](C)c2cccc3c(C(=O)NC)ccnc23)ncn1 + CC[C@@]1(O)C(=O)OCc2c1cc1n(c2=O)Cc2cc3c(CN(C)C)c(O)ccc3nc2-1", "Reported Result": "7.9%"}

====

Tested on: NCI-H719 tumor spheroids, viability
Test: Anticancer human tumor NCI-H719 cell line growth inhibition; active = viability on the fitted dose curve at most 10% of control; inactive = the rest;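 note: spheroids exposed to compounds for seven days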
Conditions: second compound 31.6 µM; first compound 0.0949 µM; spheroids with HUVEC and MSC
Labels: 1 (yes) (active), 0 (no) (inactive)

{"Molecule": "Cn1ncnc1[C@H]1c2n[nH]c(=O)c3cc(F)cc(c23)N[C@@H]1c1ccc(F)cc1 + Cn1nnc2c(C(N)=O)ncn2c1=O", "System Under Test": "NCI-H719 tumor spheroids, viability", "Qualitative Label": "1 (yes)"}
{"Molecule": "CNCc1ccc(-c2cc(-c3nc(-c4ccc(S(=O)(=O)C(C)C)cc4)cnc3N)on2)cc1 + Cn1nnc2c(C(N)=O)ncn2c1=O", "System Under Test": "NCI-H719 tumor spheroids, viability", "Qualitative Label": "0 (no)"}
{"Molecule": "O=C(c1cc(Cc2n[nH]c(=O)c3ccccc23)ccc1F)N1CCN(C(=O)C2CC2)CC1 + Cn1nnc2c(C(N)=O)ncn2c1=O", "System Under Test": "NCI-H719 tumor spheroids, viability", "Qualitative Label": "0 (no)"}
{"Molecule": "Cc1sc2c(c1C)C(c1ccc(Cl)cc1)=NC(CC(=O)Nc1ccc(O)cc1)c1nnc(C)n1-2 (centres undefined) + Cn1nnc2c(C(N)=O)ncn2c1=O", "System Under Test": "NCI-H719 tumor spheroids, viability", "Qualitative Label": "0 (no)"}

====

viability, T/C values by entry
System: NCI-H719 tumor spheroids, viability
Experiment: Anticancer human tumor NCI-H719 cell line growth inhibition;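 note: spheroids exposed to compounds for seven days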;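 for viability, T/C: percent viability relative to DMSO vehicle control as 100%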
Conditions: second compound 0.000949 µM; first compound 0.0949 µM; stronger effect = lower value; spheroids with HUVEC and MSC

{"Molecule": "Cn1ncnc1[C@H]1c2n[nH]c(=O)c3cc(F)cc(c23)N[C@@H]1c1ccc(F)cc1 + COc1cc2c(cc1O)CCNC21CSC2c3c(OC(C)=O)c(C)c4c(c3C(COC1=O)N1C(O)C3Cc5cc(C)c(OC)c(O)c5C(C21)N3C)OCO4", "viability, T/C (%)": 7.37}
{"Molecule": "CNCc1ccc(-c2cc(-c3nc(-c4ccc(S(=O)(=O)C(C)C)cc4)cnc3N)on2)cc1 + COc1cc2c(cc1O)CCNC21CSC2c3c(OC(C)=O)c(C)c4c(c3C(COC1=O)N1C(O)C3Cc5cc(C)c(OC)c(O)c5C(C21)N3C)OCO4", "viability, T/C (%)": 8.98}
{"Molecule": "O=C(c1cc(Cc2n[nH]c(=O)c3ccccc23)ccc1F)N1CCN(C(=O)C2CC2)CC1 + COc1cc2c(cc1O)CCNC21CSC2c3c(OC(C)=O)c(C)c4c(c3C(COC1=O)N1C(O)C3Cc5cc(C)c(OC)c(O)c5C(C21)N3C)OCO4", "viability, T/C (%)": 6.97}
{"Molecule": "Cc1sc2c(c1C)C(c1ccc(Cl)cc1)=NC(CC(=O)Nc1ccc(O)cc1)c1nnc(C)n1-2 (centres undefined) + COc1cc2c(cc1O)CCNC21CSC2c3c(OC(C)=O)c(C)c4c(c3C(COC1=O)N1C(O)C3Cc5cc(C)c(OC)c(O)c5C(C21)N3C)OCO4", "viability, T/C (%)": 4.47}

====

System: NCI-H719 tumor spheroids, viability
Assay: Anticancer human tumor NCI-H719 cell line growth inhibition;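 note: spheroids exposed to compounds for seven days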
Conditions: curve of first compound; second compound 30 pM; spheroids with HUVEC and MSC
Examples of molecules with documented IC50 follow.

{"Molecule": "Cc1cc(C)c(CNC(=O)c2cc(-c3ccc(CN4CCOCC4)cc3)cc3c2cnn3C2CCCC2)c(=O)[nH]1 + COc1cc2c(cc1O)CCNC21CSC2c3c(OC(C)=O)c(C)c4c(c3C(COC1=O)N1C(O)C3Cc5cc(C)c(OC)c(O)c5C(C21)N3C)OCO4", "IC50": "> 10 µM"}
{"Molecule": "Cn1ncnc1[C@H]1c2n[nH]c(=O)c3cc(F)cc(c23)N[C@@H]1c1ccc(F)cc1 + COc1cc2c(cc1O)CCNC21CSC2c3c(OC(C)=O)c(C)c4c(c3C(COC1=O)N1C(O)C3Cc5cc(C)c(OC)c(O)c5C(C21)N3C)OCO4", "IC50": "< 0.00949 µM"}
{"Molecule": "CC1COCCN1c1cc(-c2ccnn2C)c2ccnc(-c3ccn[nH]3)c2n1 (centres undefined) + COc1cc2c(cc1O)CCNC21CSC2c3c(OC(C)=O)c(C)c4c(c3C(COC1=O)N1C(O)C3Cc5cc(C)c(OC)c(O)c5C(C21)N3C)OCO4", "IC50": "< 0.0316 µM"}
{"Molecule": "CC(C)n1c(=O)n(C)c2cnc3cc(F)c(-c4ccc(OCCCN5CCCCC5)nc4)cc3c21 + COc1cc2c(cc1O)CCNC21CSC2c3c(OC(C)=O)c(C)c4c(c3C(COC1=O)N1C(O)C3Cc5cc(C)c(OC)c(O)c5C(C21)N3C)OCO4", "IC50": "> 10 µM"}
